Experiment: HUVEC growth inhibition – cell-based, human, primary screen (AID 575);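 also: 100% = median of untreated cell wells with 0.1% DMSO on each plate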
Settings: HUVEC proliferation, CellTiter-Glo luminescence, 72 h; at 10 µM; stronger effect = lower value
Measured Metric: viability (%)

Compound	Reported Value
Cc1oc2c(CN3CCOCC3)c(O)ccc2c(=O)c1-c1ccc(Br)cc1	91.8
CC(C)N(C(=O)COC(=O)c1ccc(O)cc1)C(C)C	88.3
C[C@]12CC[C@@H]3c4ccc(O[C@@H]5O[C@H](C(=O)O)[C@@H](O)[C@H](O)[C@H]5O)cc4CC[C@H]3[C@@H]1C[C@@H](O)[C@@H]2O	89.5
O=C(O)CCCCCCC1C(=O)NC(=O)N1CCC(O)C1CCCCC1 (centres undefined)	79.8
COc1c(Br)cc2c(C)c(C(=O)O)oc2c1Br	84.2
Cc1cc2n(n1)C(c1ccccc1)Nc1ccccc1-2 (centres undefined)	77.1
O=C(Nc1ccc2nc(-c3cccs3)[nH]c2c1)c1ccco1	94.2
CCOc1ccccc1-c1nc(-c2ccc(NC(=O)Cc3ccccc3OC)cc2)no1	75.3
CCCCOc1cc(=O)[nH]c(=O)[nH]1	95.2

---

Assay: growth suppression of yeast trafficking mutant, preliminary HTS, modulators of trafficking downstream of Golgi apparatus project, 1536-format plate, OD 615 nm (AID 637)
Conditions: yeast transport mutant growth, absorbance 615 nm, 18 h; stronger effect = higher value
Measured Metric: inhibition (%)

Compound	Units Text	Reported Value
COc1ccc(OC)c(S(=O)(=O)NCCC2=CCCCC2)c1	%	-3.77
COc1cccc(-c2cc(C(F)(F)F)n3ncc(C(=O)O)c3n2)c1	%	-2.95
C=COC(=O)CSc1snc(SCC(=O)OC)c1C#N	%	6.98
Cc1ccc(S(=O)(=O)NCC(=O)N(CC(=O)NC2CCCCC2)Cc2ccco2)cc1	%	4.76
COc1ccc(C(C)=O)c(OC(=O)c2ccc(OC)c(OC)c2)c1	%	-3.33
CCOC(=O)c1sc(NC(=O)C2CC=CCC2C(=O)O)nc1C (centres undefined)	%	-1.64
CC(O)c1nc2ccccc2n1C1CCCCC1 (centres undefined)	%	3.55
Cc1c(C(=O)O)sc2nc3n(c(=O)c12)CCC(C)CC3 (centres undefined)	%	8.69
O=C(CSc1nnc2sc3ccccc3n12)c1ccco1	%	-6
COc1ccc(NC(=O)C(C)NS(=O)(=O)c2ccccc2)cc1Cl (centres undefined)	%	-6.19
COc1ccc2nc3oc(C(=O)N4CCCCC4)cc3cc2c1	%	-3.67
CN(C)S(=O)(=O)c1ccc(Oc2ccc(S(=O)(=O)N(C)C)cc2)cc1	%	-7.14
CC(NC(=O)COc1ccc(Br)cc1)C(=O)O (centres undefined)	%	-2.33
CCc1nnc(NC(=O)c2ccc(S(=O)(=O)NC3CCCCC3)cc2)s1	%	-8.33

---

Assay: HUVEC growth inhibition – cell-based, human, primary screen (AID 575);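 also: 100% = median of untreated cell wells with 0.1% DMSO on each plate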
Settings: HUVEC proliferation, CellTiter-Glo luminescence, 72 h; at 10 µM; stronger effect = lower value

Chemical String	viability [%]
COc1cc(C(=O)N2CCN(C(=O)CC(C)C)CC2)cc(OC)c1OC	101
CCCC(=O)O[C@]1(C(=O)CCl)[C@@H](C)C[C@H]2[C@@H]3CCC4=CC(=O)C=C[C@]4(C)[C@@]3(F)C(=O)C[C@@]21C	81.2
CC1(C)CC(=O)C(C(=O)CCCCC(=O)C2C(=O)CC(C)(C)CC2=O)C(=O)C1	98.4
C/C(NC1CCCC1)=C(/C#N)C(N)=O	116
Nc1nc(F)nc2c1ncn2[C@@H]1O[C@H](CO)[C@@H](O)[C@@H]1O	65.7
CCSC1=NCN(CCCC(=O)O)CN1	96.3

The origin of these recorded values is PubChem BioAssay.
